tested on: uninduced N2A cells; assay type: cell-based; settings: cell death as percent of LDH released into medium vs total LDH, compound 10 μM
Value type: LDH (%)
Give bare numbers, in %.

Worked examples follow.
| Smiles representation | Value units | Val |
| --- | --- | --- |
| O=C(NNc1nc2c(s1)Cc1ccccc1-2)c1cc2ccccc2[nH]1 | % | −9.6 |
| N#Cc1ccc(-c2csc(NNC(=O)c3cccc(F)c3)n2)cc1 | % | 19.8 |
| Cc1sc(NNC(=O)c2ccc(Cl)cc2)nc1-c1cccc([N+](=O)[O-])c1 | % | 47.4 |
| O=C(NNc1nc(-c2ccccc2)cs1)c1ccc(-c2ccccc2)cc1 | % | 3.6 |
| O=C(NNc1nc(-c2ccc([N+](=O)[O-])cc2)cs1)c1ccc2c(c1)OCO2 | % | 9.3 |

For every listed record, write down its LDH.
1. O=C(NNc1nc(-c2cc3ccccc3oc2=O)cs1)c1ccc2c(c1)OCO2
2. O=C(NNc1nc(-c2ccc(-c3ccccc3)cc2)cs1)c1cc2ccccc2[nH]1
3. O=C(NNc1nc(-c2ccc(N3CCCC3)cc2)cs1)c1ccc2ccccc2c1
4. CC(C)(C)c1csc(NNC(=O)c2ccc(Cl)cc2)n1

Result:
1: 2.0; 2: 54.5; 3: 15.3; 4: 48.1
